test: qHTS of pediatric cancer cell lines to identify multiple opportunities for drug repurposing: Primary screen for BT-12 cells (AID 1347101); details: BT-12 viability, CellTiter-Glo luminescence, 48 h; series mostly up to 57.3 µM; also: nearly all actives have a fitted effect of over 25% in size
Records with an inconclusive call do not appear. Activity calls are given as the source filed them. Calls follow the shape of the dose curve; as a rule, active = well fitted cell-killing curve with a large enough effect; inconclusive = small, poorly fitted or top-dose-only effect; inactive = flat fitted curve, though single readings scatter.
Please answer using one outcome listed in active, inactive

Please review the entries below; each comes with its answer.
O=C(O)C1=CO[C@@H](O[C@@H]2O[C@H](CO)[C@H](O)[C@H](O)[C@H]2O)[C@@H]2C(CO)=CC[C@H]12    inactive
N#CC(c1ccnc(NCCc2cccnc2)n1)c1nc2ccccc2s1 (stereo unspecified)    active
CN1c2ccccc2C(=O)N2CCc3c([nH]c4ccccc34)C21 (stereo unspecified)    inactive
COc1ccc(C=CC(=O)Nc2ccccc2C(=O)O)cc1OC    inactive
CN1CCN(c2ncc(-c3cc(Cl)cc(Cl)c3Cl)c(N)n2)CC1    active
CCc1cccc(CC)c1NC(=O)N1Cc2[nH]nc(NC(=O)c3ccc(N4CCN(C)CC4)cc3)c2C1    inactive
Nc1[nH]nc2nnc(-c3c(-c4ccccc4)nn4ccccc34)cc12    active
N#Cc1c(N(CC(=O)O)CC(=O)O)sc(C(=O)O)c1CC(=O)O    inactive
NC(N)=Nc1nc(CSCCC(N)=NS(N)(=O)=O)cs1    inactive
Cn1c(=O)c(Oc2ccc(F)cc2F)cc2cnc(NC3CCOCC3)nc21    inactive

State the result this test recorded for FC(F)(F)c1ccc(C=Cc2nc(COc3ccc(CCCCn4ccnn4)cc3)co2)cc1 .
active

State the result this test recorded for CN[C@@H](C)[C@H]1[C@H](O)C[C@@]2(C)[C@@H]3CC[C@H]4C(C)(C)[C@@H](NC)CC[C@@]45C[C@@]35CC[C@]12C .
inactive

State the result this test recorded for O=c1cc(-c2ccc(O)c(O)c2)oc2cc(O)cc(O)c12 .
inactive

State the result this test recorded for CCC(=O)OCC(=O)[C@@]1(OC(=O)CC)[C@@H](C)C[C@@H]2[C@H]3CCC4=CC(=O)C=C[C@]4(C)[C@@]3(F)[C@@H](O)C[C@@]21C .
active

State the result this test recorded for CC1(C)OC2CC3C4CC(F)C5=CC(=O)C=CC5(C)C4C(O)CC3(C)[C@]2(C(=O)CO)O1 (stereo partly specified) .
inactive

State the result this test recorded for C=C[C@@H]1CN2CCC1C[C@@H]2C(O)c1ccnc2ccc(OC)cc12 (stereo partly specified) .
inactive

State the result this test recorded for CCCCC(F)(F)[C@@]1(O)CC[C@H]2[C@H](CC(=O)[C@@H]2CCCCCCC(=O)O)O1 .
inactive

State the result this test recorded for COc1ccc(-c2cc(=O)c3c(O)cc(O[C@@H]4O[C@H](CO[C@@H]5O[C@@H](C)[C@H](O)[C@@H](O)[C@@H]5O)[C@@H](O)[C@H](O)[C@@H]4O)cc3o2)cc1O .
inactive

State the result this test recorded for CCOC(=O)[C@@H](N)CCC(=O)N[C@@H](CSCc1ccccc1)C(=O)N[C@@H](C(=O)OCC)c1ccccc1 .
inactive

State the result this test recorded for CCOC(=O)[C@H](CCc1ccccc1)N[C@@H](C)C(=O)N1CCCC1C(=O)O (stereo partly specified) .
inactive

State the result this test recorded for CC1=C(CC(=O)O)c2cc(F)ccc2C1=Cc1ccc(S(C)=O)cc1 (stereo unspecified) .
inactive

State the result this test recorded for O=C(O)c1nc(=O)[nH]c(=O)[nH]1 .
inactive

State the result this test recorded for COC1CCC(C(=O)c2ccc3nc4c(cc3c2)CCCO4)CC1 (stereo unspecified) .
active

State the result this test recorded for COc1cc(CNC(=O)CCCCC=CC(C)C)ccc1O .
inactive

State the result this test recorded for CN(C)CCN(C)C(=O)c1ccc(NC(=O)Nc2ccc(-c3nc(N4CCOCC4)c4ccn(CC(F)(F)F)c4n3)cc2)cc1 .
active

State the result this test recorded for CCCCCCCCCCCCCCCC(=O)O[C@H]1[C@@H](O)[C@@H](O)[C@@H]([C@H](NC(=O)[C@@H]2C[C@@H](CCC)CN2C)[C@H](C)Cl)O[C@@H]1SC .
inactive

###

experiment: High-throughput drug toxicity screening in the BPDCN cell line Cal-1 (AID 1224825); details: Cal-1 BPDCN cell viability, qHTS; at 45.8 µM (top of the series) unless noted;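 also: cells exposed to compounds for 48 h; 100% = DMSO and 0% = bortezomib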
PARAMETER_MEASURED: viability (% of control) (%)
Report only the number, with the unit % understood.

COc1ccc(-c2oc3c(CC=C(C)C)c(O)cc(O)c3c(=O)c2O)cc1    45.1

Need viability (% of control), item COc1ccc(-c2cc(=O)c3c(O)cc(O[C@@H]4O[C@H](CO[C@@H]5O[C@@H](C)[C@H](O)[C@@H](O)[C@@H]5O)[C@@H](O)[C@H](O)[C@@H]4O)cc3o2)cc1O
111

Need viability (% of control), item CC[C@@H]([C@H](C)O)n1ncn(-c2ccc(N3CCN(c4ccc(OCC5CO[C@@](Cn6cncn6)(c6ccc(F)cc6F)C5)cc4)CC3)cc2)c1=O (stereo partly specified)
108

Need viability (% of control), item CN[C@@H](C)[C@H]1[C@H](O)C[C@@]2(C)[C@@H]3CC[C@H]4C(C)(C)[C@@H](NC)CC[C@@]45C[C@@]35CC[C@]12C
89.5

Need viability (% of control), item CCCC1OC2C[C@@H]3[C@H]4CCC5=CC(=O)C=C[C@]5(C)[C@H]4C(O)C[C@]3(C)[C@]2(C(=O)CO)O1 (stereo partly specified)
11.8

###

Assay: Quantitative High-Throughput drug screen in 47 multiple myeloma cell lines against the NCATS MIPE library collection: Karpas25_ECACC cell viability assay (AID 1918968; also: potency is read from the fitted curve at half-maximal effect; nearly all actives have a fitted effect of over 35% in size)
Conditions: Karpas25 myeloma viability, CellTiter-Glo ATP, 48 h; series mostly up to 45.8 µM
Excerpt: PI: Beverly A. Mock Ph.D. Laboratory of Cancer Biology and Genetics, Center for Cancer Research, National Cancer Institute, National Institute of Health, Bethesda, Maryland […] 5; Detector; 425V; Luminescence; Viewlux PerkinElmer. […] 1. […] Briefly, the corresponding myeloma cell lines were screened in 1,536-well plates with 500 cells, 5-uL per well for inhibition of cell viability (assessed by measuring ATP levels with CellTiterGlo). […]
Records with an inconclusive call do not appear. Active and inactive are the calls of the source. Calls come from the whole dose curve; as a rule, active = well fitted cell-killing curve with a large enough effect; inconclusive = small, poorly fitted or top-dose-only effect, or effect the other way; inactive = no such curve, though single readings can be large or run the other way.
PARAMETER_MEASURED: Potency

The following compounds have reported results that may help.
Cc1cnc(Nc2cccc(CN3CCOCC3)c2)nc1Nc1cccc(S(=O)(=O)NC(C)(C)C)c1    3.72 µM (active)
CN1CCC[C@H]1CCO[C@](C)(c1ccccc1)c1ccc(Cl)cc1    13.2 µM (active)
CCOC(=O)[C@@H](N)CCC(=O)N[C@@H](CSCc1ccccc1)C(=O)N[C@@H](C(=O)OCC)c1ccccc1    23.5 µM (active)

Need Potency, item N#CC(c1ccnc(NCCc2cccnc2)n1)c1nc2ccccc2s1 (stereo not drawn)
7.43 µM (active)

Need Potency, item C[C@@H]1[C@H](O)[C@@H](C)C=CC=CC=CC=CC=CC=CC=C[C@H](O[C@@H]2O[C@H](C)[C@H](O)[C@H](N)[C@@H]2O)C[C@@H]2O[C@](O)(C[C@@H](O)C[C@@H](O)[C@H](O)CC[C@@H](O)C[C@@H](O)CC(=O)O[C@H]1C)C[C@H](O)[C@@H]2C(=O)O
3.32 µM (active)

Need Potency, item O=C1Nc2ccc(I)cc2C1=Cc1cc(Br)c(O)c(Br)c1
14.8 µM (active)

Need Potency, item Nc1ncnc2c1c(-c1cccc(OCc3ccccc3)c1)cn2C1CC(CN2CCC2)C1 (stereo not drawn)
1.18 µM (active)

Need Potency, item O=C(c1ccc(C=Cc2n[nH]c3ccccc23)cc1)N1CCNCC1
3.72 µM (active)

###

assay: qHTS of pediatric cancer cell lines to identify multiple opportunities for drug repurposing: Primary screen for NB1643 cells (AID 1347099); settings: NB1643 neuroblastoma viability, CellTiter-Glo luminescence, 48 h; series mostly up to 46 µM; also: nearly all actives have a fitted effect of over 50% in size
Results filed as inconclusive are left out. Activity calls are given as the source filed them. Calls follow the shape of the dose curve; as a rule, active = well fitted cell-killing curve with a large enough effect; inconclusive = small, poorly fitted or top-dose-only effect; inactive = no such curve, though single readings can be large or run the other way.
Please answer using one outcome listed in y (active), n (inactive)

Cc1ccc(C(=O)N(CCCN)[C@@H](c2oc3cc(Cl)ccc3c(=O)c2Cc2ccccc2)C(C)C)cc1    n
C[C@H]1[C@H](O)O[C@@H]2O[C@@]3(C)CC[C@@H]4[C@H](C)CC[C@@H]1[C@@]24OO3    y
COc1ccnc(CS(=O)c2nc3ccc(OC(F)F)cc3[nH]2)c1OC (stereo not drawn)    n
CN(C)CC[C@H](CSc1ccccc1)Nc1ccc(S(=O)(=O)NC(=O)c2ccc(N3CCN(Cc4ccccc4-c4ccc(Cl)cc4)CC3)cc2)cc1[N+](=O)[O-]    y
CCNC(=O)[C@H]1O[C@@H](n2cnc3c(N)nc(NCCc4ccc(CCC(=O)O)cc4)nc32)[C@H](O)[C@H]1O    n
C[C@@H]1C[C@H]2[C@@H]3CCC4=CC(=O)C=C[C@]4(C)[C@@]3(F)[C@@H](O)C[C@]2(C)[C@@]1(O)C(=O)CO    n
CCCCC(C=O)NC(=O)C(CC(C)C)NC(=O)OCc1ccccc1 (stereo not drawn)    y
O=C1NC(=O)C(c2cnc3ccccn23)=C1c1cn2c3c(cccc13)CN(C(=O)N1CCOCC1)CC2    y
CC1(C)C(N(O)C(=O)Nc2ccc(Cl)cc2)N(c2ccc(Cl)cc2)C(=O)N1CC(=O)NN=CC=Cc1ccc([N+](=O)[O-])o1 (stereo not drawn)    y
CC[C@@H]([C@H](C)O)n1ncn(-c2ccc(N3CCN(c4ccc(OCC5CO[C@@](Cn6cncn6)(c6ccc(F)cc6F)C5)cc4)CC3)cc2)c1=O (stereo partly drawn)    y

State the result this test recorded for Cc1cc(CS(=O)(=O)c2ccccc2)cc(OCc2ccc(CN3CCC[C@H]3CO)cc2)c1 .
y

State the result this test recorded for O=C(C=Cc1ccc(O)cc1)c1ccc(O)cc1O .
y

State the result this test recorded for C=C1[C@H](n2cnc3c(=O)[nH]c(N)nc32)C[C@H](O)[C@H]1CO .
n
